Tested on: crabgrass
Assay: Test B pre/postemergence crabgrass
Type: in vivo, Digitaria sanguinalis
Conditions: Postemergence, Rate 125 g/ha; scale of 0 to 10 where 0 is no effect and 10 is complete control
Method: […] At the same time, these crop and weed species were also treated with postemergence applications of test chemicals formulated in the same manner. […] Treated plants and controls were maintained in a greenhouse for twelve to sixteen days, after which all species were compared to controls and visually evaluated. […]
VALUE_TYPE: Crabgrass plant response rating
Reply with the value as a number alone.

// known answers, use as guide
> print(dat)
                                   compound  subject.of.test  reported
1  CCOP(=O)(OCC)C(C)n1c(=O)on(C(=O)N(c2ccc(F)cc2F)C(C)C)c1=O (centres unmarked) [Compound 776]        crabgrass         2
2  CC(C)N(C(=O)n1oc(=O)n(CCCl)c1=O)c1ccc(F)cc1 [Compound 148]        crabgrass         8
3  CCOC(=O)Cn1c(=O)on(C(=O)N(c2ccc(F)cc2)C(C)C)c1=O [Compound 128]        crabgrass         0
4  CC[C@@H](C)n1c(=O)on(C(=O)N(c2ccc(Cl)cc2)C(C)C)c1=O [Compound 665]        crabgrass         7
5  CC(C)N(C(=O)n1oc(=O)n(CC(F)F)c1=O)c1ccccc1 [Compound 746]        crabgrass         9
6  CCc1noc(C)c1-n1c(=O)on(C(=O)N(c2ccc(F)cc2)C(C)C)c1=O [Compound 101]        crabgrass         0
7  CC(C)N(C(=O)n1oc(=O)n(CC(=O)C2CCC2)c1=O)c1ccc(Cl)cc1 [Compound 643]        crabgrass         0

Below: the item to evaluate.
# input Under crabgrass: Crabgrass plant response rating value of Cc1nn(C)c(Cl)c1-n1c(=O)on(C(=O)N(c2ccc(F)cc2)C(C)C)c1=O [Compound 95] ?
# output 0

---

system: surinam grass; experiment: Test B pre/postemergence surinam grass; type: in vivo, Brachiaria decumbens; settings: Preemergence, Rate 500 g/ha; scale of 0 to 10 where 0 is no effect and 10 is complete control
Plant response rating, B. signalgrass for assorted compounds
Reply with the value as a number alone.

> print(dat)
                                   compound                             value.type  reported
1  CC(C)N(C(=O)n1oc(=O)n(CC(=O)C2CCC2)c1=O)c1ccc(Cl)cc1  Plant response rating, B. signalgrass         6
2  Cc1ccccc1-n1c(=O)on(C(=O)N(c2ccc(S(C)(=O)=O)cc2)C(C)C)c1=O  Plant response rating, B. signalgrass         0
3  COC(=O)C(CCO)n1c(=O)on(C(=O)N(c2ccccc2)C(C)C)c1=O (stereo not shown)  Plant response rating, B. signalgrass         0

Below: the item to evaluate.
# input Which Plant response rating, B. signalgrass is listed for COCCOCn1c(=O)on(C(=O)N(c2ccc(F)cc2)C(C)C)c1=O ?
# output 8

---

Wild oats plant response rating for assorted compounds
test system: wild oat; test: Test B pre/postemergence wild oat; format: in vivo, Avena fatua; conditions: Preemergence, Rate 250 g/ha; scale 0 to 10, 0 is no effect, 10 is complete control

// known answers, use as guide
> print(dat)
                                   compound  reported
1  Cc1nc(C)c(C(C)n2c(=O)on(C(=O)N(c3ccc(F)cc3F)C(C)C)c2=O)s1 (stereo not shown)         0
2  CC(C)N(C(=O)n1oc(=O)n(CCC#N)c1=O)c1ccc(F)cc1F         6

Below: the item to evaluate.
# input Under wild oat: Wild oats plant response rating value of CCOC(=O)Cn1c(=O)on(C(=O)N(c2ccc(F)cc2)C(C)C)c1=O ?
# output 0
